Parameter mpo:GFP inflammation n (survived/tested): see the listing below.
system: mpo:GFP zebrafish embryos (neutrophil migration to the wound site); experiment: mpo:GFP zebrafish fin-clip neutrophil migration (inflammation) assay; assay type: in vivo; settings: embryos survived/tested at the concentration given

Illustrative cases are given below, each with its answer.
# compound, quantity, recorded-value
data = [
    ("O=C1c2ccccc2CN1C1C2CC3CC(C2)CC1C3 (centres unmarked) [Compound 72]", "mpo:GFP inflammation n (survived/tested)", "6/15"),
    ("O=C1CCC(N2Cc3ccc([N+](=O)[O-])cc3C2=O)C(=O)N1 (centres unmarked) [Compound 33]", "mpo:GFP inflammation n (survived/tested)", "4/15"),
    ("CC1(C)S[C@@H]2[C@H](N3Cc4ccccc4C3=O)C(=O)N2[C@H]1C(=O)O [Compound 65]", "mpo:GFP inflammation n (survived/tested)", "10/20"),
]

Consider now this further compound.
Given O=C1c2ccccc2CN1C12CC3CC(CC(C3)C1)C2 [Compound 69] , state its recorded mpo:GFP inflammation n (survived/tested). 8/17

====

test system: mpo:GFP zebrafish embryos (neutrophil migration to the wound site); assay: mpo:GFP zebrafish fin-clip neutrophil migration (inflammation) assay; type: in vivo; set-up: concentration or dose not given beside the values; details: embryos survived/tested at the concentration given
Parameter mpo:GFP inflammation n (survived/tested): see the listing below.

Illustrative cases are given below, each with its answer.
# compound, quantity, recorded-value
measured = [
    ("CC(=O)Oc1ccc2c(c1)C(=O)N(C1CCC(=S)NC1=O)C2=O (stereo not shown)", "mpo:GFP inflammation n (survived/tested)", "5/12"),
    ("O=C1NC(=S)CCC1N1C(=O)c2ccc(O)cc2C1=O (stereo not shown)", "mpo:GFP inflammation n (survived/tested)", "5/5"),
]

Given CC(C)Nc1ccc2c(c1)C(=O)N(C1CC=CNC1=O)C2 (stereo not shown) , state its recorded mpo:GFP inflammation n (survived/tested). 24/50

Another compound to check: O=C1c2ccccc2C(=O)N1c1nc2ccc(C(F)(F)F)cc2s1 6/11
